Method: qHTS assay for MDR1-selective chemotherapeutics: Primary screen using the drug-selected MDR subline cells KB-V1; also: nearly all actives have a fitted effect of over 60% in size
Run Parameters: KB-V1 MDR cells viability, CellTiter-Glo, 72 h; series mostly up to 46.1 µM
Among all 400,000 compounds or so, about 13,000 (3.2%) were called active. Not shown: some 18% with an inconclusive outcome. Calls follow the shape of the dose curve; as a rule, active = well fitted cell-killing curve with a large enough effect; inconclusive = small, poorly fitted or top-dose-only effect, or effect the other way; inactive = flat fitted curve, though single readings scatter. Only a selection was taken, and actives are over-represented in it overall.
Result category, one only: true (1) for active, false (0) for inactive

The examples below pair each entry with its known result.
{"Smi": "CN(c1ccccc1)S(=O)(=O)c1ccc(NC(=O)COc2ccccc2)cc1", "Answer Label": "false (0)"}
{"Smi": "CCN(Cc1cc2cc(C)ccc2[nH]c1=O)S(=O)(=O)c1ccccc1", "Answer Label": "true (1)"}
{"Smi": "CCOC(=O)c1c(NC(=O)CSc2nnc(Cc3csc(N)n3)n2C)sc(C)c1C", "Answer Label": "false (0)"}

Inquiry: For this molecule, state the assay outcome: "COc1cccc(CNc2nc(NCc3cccs3)nc3ccsc23)c1"
Reply text: false (0)
